Target: CFTR-mediated chloride transport (Homo sapiens)
Sequence (P13569 whole entry, looked up): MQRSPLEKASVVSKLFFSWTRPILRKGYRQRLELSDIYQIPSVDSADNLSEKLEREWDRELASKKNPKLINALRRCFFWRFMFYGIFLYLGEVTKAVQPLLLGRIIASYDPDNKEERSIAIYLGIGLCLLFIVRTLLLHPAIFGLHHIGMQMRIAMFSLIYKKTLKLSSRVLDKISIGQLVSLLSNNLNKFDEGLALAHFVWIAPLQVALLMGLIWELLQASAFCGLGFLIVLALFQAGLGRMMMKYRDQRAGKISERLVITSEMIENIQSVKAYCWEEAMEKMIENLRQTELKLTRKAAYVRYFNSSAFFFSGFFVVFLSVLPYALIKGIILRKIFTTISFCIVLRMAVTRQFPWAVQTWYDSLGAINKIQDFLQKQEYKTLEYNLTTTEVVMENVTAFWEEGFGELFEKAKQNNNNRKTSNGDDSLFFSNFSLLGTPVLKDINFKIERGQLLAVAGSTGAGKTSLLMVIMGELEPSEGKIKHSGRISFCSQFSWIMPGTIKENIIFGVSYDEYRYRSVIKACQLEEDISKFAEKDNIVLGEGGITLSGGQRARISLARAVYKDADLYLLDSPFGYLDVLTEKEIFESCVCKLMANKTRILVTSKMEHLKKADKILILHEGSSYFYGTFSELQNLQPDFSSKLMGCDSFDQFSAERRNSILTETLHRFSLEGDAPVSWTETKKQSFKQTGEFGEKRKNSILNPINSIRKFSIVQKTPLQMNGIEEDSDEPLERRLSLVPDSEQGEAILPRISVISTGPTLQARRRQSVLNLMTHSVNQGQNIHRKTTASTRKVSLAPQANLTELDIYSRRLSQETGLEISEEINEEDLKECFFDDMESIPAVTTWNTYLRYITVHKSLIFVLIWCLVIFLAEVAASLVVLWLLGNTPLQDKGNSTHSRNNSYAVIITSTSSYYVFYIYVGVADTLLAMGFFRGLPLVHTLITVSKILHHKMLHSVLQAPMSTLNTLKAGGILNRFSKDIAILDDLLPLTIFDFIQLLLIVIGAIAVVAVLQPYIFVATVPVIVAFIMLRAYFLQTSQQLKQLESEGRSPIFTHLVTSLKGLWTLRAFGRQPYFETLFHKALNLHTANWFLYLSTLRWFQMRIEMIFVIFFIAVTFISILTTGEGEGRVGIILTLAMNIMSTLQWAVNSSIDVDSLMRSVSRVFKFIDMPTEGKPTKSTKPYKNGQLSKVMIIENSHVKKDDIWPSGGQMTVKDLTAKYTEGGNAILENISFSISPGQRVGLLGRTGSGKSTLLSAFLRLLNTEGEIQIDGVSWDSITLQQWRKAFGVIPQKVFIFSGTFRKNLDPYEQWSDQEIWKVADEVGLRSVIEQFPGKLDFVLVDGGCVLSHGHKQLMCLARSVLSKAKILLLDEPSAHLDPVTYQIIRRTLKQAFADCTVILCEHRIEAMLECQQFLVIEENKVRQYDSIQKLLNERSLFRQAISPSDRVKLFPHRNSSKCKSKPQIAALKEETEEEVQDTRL
Conditions: enteroid cells incubated with test compound 18-24 hours; acute 10 μM forskolin and 300 nM Compound III
metric: EC50

Example entries begin here.
compound="CC(C)(C)CCCC1CCN(c2ccc3c(n2)N2C[C@@H](CCCNc4cccc(n4)S(=O)(=O)NC3=O)CC2(C)C)C1=O (some centres unmarked)" reported_result="< 1000 nM"
compound="CC1(C)CC[C@H]2CCNc3cccc(n3)S(=O)(=O)NC(=O)c3ccc(-n4ccc(OCCC5(C(F)(F)F)CC5)n4)nc3N21 (single isomer, unassigned) [Compound 116]" reported_result="< 1000 nM"
compound="CC(C)(C)CCC1CCN(c2ccc3c(n2)N2C[C@@H](CCCNc4cccc(n4)S(=O)(=O)NC3=O)CC2(C)C)C1=O (some centres unmarked)" reported_result="< 1000 nM"
compound="CC1(C)CC2CN1c1nc(-n3ccc(OCCC4(C(F)(F)F)CC4)n3)ccc1C(=O)NS(=O)(=O)c1cccc(n1)N2 (centres unmarked)" reported_result="> 3000 nM"
compound="C[C@@H]1CC[C@H]2CN(c3nc(N4CCN(CCC(C)(C)C)C4=O)ccc3C(=O)NS(=O)(=O)c3cccc(n3)N1)C(C)(C)C2 (single isomer, unassigned) [Compound 215]" reported_result="> 3000 nM"
compound="CC1(C)C[C@H]2CCCn3ccc(n3)S(=O)(=O)NC(=O)c3ccc(N4CC[C@H](OCCC5(C(F)(F)F)CC5)C4=O)nc3N1C2 (single isomer, unassigned) [Compound 191]" reported_result="< 1000 nM"

query: What measured EC50 is associated with CC1(C)C[C@H]2CCCn3ccc(n3)S(=O)(=O)NC(=O)c3ccc(-n4ccc(OCCC(C5CC5)C5CC5)n4)nc3N1C2 (single isomer, unassigned) [Compound 153] on CFTR-mediated chloride transport (Homo sapiens)?
result: > 3000 nM

query: What measured EC50 is associated with CC1(C)C[C@H]2CCCCCNc3cccc(n3)S(=O)(=O)NC(=O)c3ccc(-n4ccc(OCCC5(C(F)(F)F)CC5)n4)nc3N1C2 (single isomer, unassigned) [Compound 63] on CFTR-mediated chloride transport (Homo sapiens)?
result: < 1000 nM

query: What measured EC50 is associated with CC1CN(c2ccc3c(n2)N2C[C@@H](CCCNc4cccc(n4)S(=O)(=O)NC3=O)CC2(C)C)C(=O)C1CCC(C)(C)C (some centres unmarked) on CFTR-mediated chloride transport (Homo sapiens)?
result: < 1000 nM

query: What measured EC50 is associated with CN1CCCC2CN(c3nc(-n4ccc(OCCC(C5CC5)C5CC5)n4)ccc3C(=O)NS(=O)(=O)c3cccc1n3)C(C)(C)C2 (centres unmarked) on CFTR-mediated chloride transport (Homo sapiens)?
result: < 1000 nM

query: What measured EC50 is associated with CC1(C)C[C@@H]2CN1c1nc(-n3ccc(OCCC4(C(F)(F)F)CC4)n3)ccc1C(=O)NS(=O)(=O)c1ccn(n1)CCO2 (single isomer, unassigned) [Compound 167] on CFTR-mediated chloride transport (Homo sapiens)?
result: < 1000 nM

---

Target: CFTR-mediated chloride transport (Homo sapiens)
Details: enteroid cells incubated with test compound 18-24 hours; acute 10 μM forskolin and 300 nM Compound III
pEC50: −log10 of the molar value.
metric: pEC50

compound="CC1(C)C[C@H]2CCCNc3cccc(n3)S(=O)(=O)NC(=O)c3ccc(-n4ccc(OCCC5(C(F)(F)F)CC5)n4)nc3N1C2 [Compound 13]" metric=pEC50 reported_result="5.52 to 6.00"
compound="CC1(C)C[C@@H]2CCCNc3cccc(n3)S(=O)(=O)NC(=O)c3ccc(-n4cccc(OCCC5(C(F)(F)F)CC5)c4=O)nc3N1C2 [Compound 268]" metric=pEC50 reported_result="< 5.52"
compound="CC1(C)C[C@@H]2CCCNc3cccc(n3)S(=O)(=O)NC(=O)c3ccc(-n4ccc(OCCC(C)(C)C(F)(F)F)n4)nc3N1C2 [Compound 212]" metric=pEC50 reported_result="> 6.00"
compound="CC1(C)C[C@H]2CCNc3cccc(n3)S(=O)(=O)NC(=O)c3ccc(-n4ccc(OCCCC5(C(F)(F)F)CC5)n4)nc3N1C2 (single isomer, unassigned) [Compound 234]" metric=pEC50 reported_result="> 6.00"
compound="CC1(C)C[C@@H]2CCCNc3cccc(n3)S(=O)(=O)NC(=O)c3ccc(C4=CCCCO4)nc3N1C2 [Compound 303]" metric=pEC50 reported_result="> 6.00"

We next turn to a different compound, shown below.
query: pEC50 for CC1(C)CC2CCNc3cccc(n3)S(=O)(=O)NC(=O)c3ccc(-n4ccc(OCCC5(C(F)(F)F)CC5)n4)nc3N1C2 (stereo not drawn) [Compound 20] ?
result: > 6.00
